target: GST-Bcl-2 (Homo sapiens, UniProt P10415); experiment: TR-FRET binding assay, GST-Bcl-2 with F-Bak peptide probe; conditions: TR-FRET; Bcl-XL Ki divided by Bcl-2 Ki
Sequence (P10415 whole entry): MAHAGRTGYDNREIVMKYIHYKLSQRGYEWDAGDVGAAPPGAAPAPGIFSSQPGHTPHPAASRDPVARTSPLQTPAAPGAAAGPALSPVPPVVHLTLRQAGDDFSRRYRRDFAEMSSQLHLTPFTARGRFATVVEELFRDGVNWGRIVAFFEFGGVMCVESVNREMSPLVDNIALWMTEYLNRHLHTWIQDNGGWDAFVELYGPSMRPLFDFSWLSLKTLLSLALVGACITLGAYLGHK
REPORTED_PROPERTY: Binding selectivity ratio (Bcl-XL Ki/Bcl-2 Ki)

Answered cases to consult:
[[record]]
compound = "CC1(C)CCC(CN2CCN(c3ccc(C(=O)NS(=O)(=O)c4cnc(OC[C@H]5CC[C@H](C#N)CC5)c(Cl)c4)c(Oc4cccc5[nH]ncc45)c3)CC2)=C(c2ccc(Cl)cc2)C1 [Example 492]"
result = ">4509.6"

[[record]]
compound = "CC1(C)CCC(CN2CCN(c3ccc(C(=O)NS(=O)(=O)c4ccc(NCC5CCOCC5)c([N+](=O)[O-])c4)c(Oc4cccc5[nH]nnc45)c3)CC2)=C(c2ccc(Cl)cc2)C1 [Example 523]"
result = ">4944.4"

[[record]]
compound = "CC1(C)CC(c2ccc(Cl)cc2)=C(CN2CCN(c3ccc(C(=O)NS(=O)(=O)c4ccc(OCC5(F)CCOCC5)c(Cl)c4)c(Oc4cccc5[nH]ncc45)c3)CC2)CO1 [Example 496]"
result = 558.9

[[record]]
compound = "O=C(NS(=O)(=O)c1ccc(NCC2CCOCC2)c([N+](=O)[O-])c1)c1ccc(N2CCN(CC3=C(c4ccc(Cl)cc4)CCC(F)(F)C3)CC2)cc1Oc1cccc2[nH]ncc12 [Example 524]"
result = ">2218.4"

[[record]]
compound = "O=C(NS(=O)(=O)c1cnc(OCC2(F)CCOCC2)c(Cl)c1)c1ccc(N2CCN(CC3=C(c4ccc(Cl)cc4)CCC(F)(F)C3)CC2)cc1Oc1cccc2[nH]ncc12 [Example 521]"
result = ">466.9"


# map each compound to its Binding selectivity ratio (Bcl-XL Ki/Bcl-2 Ki)
1. CC1(C)CCC(CN2CCN(c3ccc(C(=O)NS(=O)(=O)c4cnc(OCC5(F)CCOCC5)c(Cl)c4)c(Oc4cccc5[nH]nnc45)c3)CC2)=C(c2ccc(Cl)cc2)C1 [Example 515]
2. CC1(C)CCC(CN2CCN(c3ccc(C(=O)NS(=O)(=O)c4ccc(OCC5(F)CCOCC5)c(C#N)c4)c(Oc4cccc5[nH]ncc45)c3)CC2)=C(c2ccc(Cl)cc2)C1 [Example 501]
3. CC1(C)CCC(CN2CCN(c3ccc(C(=O)NS(=O)(=O)c4cnc(OC[C@H]5CC[C@H](C(N)=O)CC5)c(Cl)c4)c(Oc4cccc5[nH]ncc45)c3)CC2)=C(c2ccc(Cl)cc2)C1 [Example 483]

stdout:
[">13994.0", 6025.7, ">563.0"]

# map each compound to its Binding selectivity ratio (Bcl-XL Ki/Bcl-2 Ki)
1. CC1(C)CCC(CN2CCN(c3ccc(C(=O)NS(=O)(=O)c4cnc(OCC5(F)CCN(C(CF)CF)CC5)c(C(F)(F)F)c4)c(Oc4cccc5[nH]ncc45)c3)CC2)=C(c2ccc(Cl)cc2)C1 [Example 459]
2. CC1(C)CCC(CN2CCN(c3cc(Oc4cccc5[nH]ncc45)c(C(=O)NS(=O)(=O)c4ccc(NCC5(F)CCOCC5)c([N+](=O)[O-])c4)cc3Cl)CC2)=C(c2ccc(Cl)cc2)C1 [Example 511]

stdout:
[541.6, ">2159.2"]

###

biological target: GST-Bcl-2 (Homo sapiens); experiment: TR-FRET binding assay, GST-Bcl-2 with F-Bak peptide probe; conditions: TR-FRET Binding Affinity, GST-Bcl-2, F-Bak peptide probe
REPORTED_PROPERTY: pKi
Numbers only, as −log10 of the molar value.

[[record]]
molecule = "CC1(C)CCC(CN2CCN(c3ccc(C(=O)NS(=O)(=O)c4ccc(N[C@@H]5CCN(CC#N)C5)c([N+](=O)[O-])c4)c(Oc4cccc5[nH]cnc45)c3)CC2)=C(c2ccc(Cl)cc2)C1 [Example 428]"
quantitative_result = 11.52

[[record]]
molecule = "CC1(C)CCC(CN2CCN(c3ccc(C(=O)NS(=O)(=O)c4ccc(NCCN5CCNC(=O)C5)c([N+](=O)[O-])c4)c(Oc4ccc5[nH]ccc5c4)c3)CC2)=C(c2ccc(Cl)cc2)C1 [Example 273]"
quantitative_result = 10.12


stdin: Reported pKi for CC1(C)CCC(CN2CCN(c3ccc(C(=O)NS(=O)(=O)c4ccc(NC5CCN(c6nccs6)CC5)c([N+](=O)[O-])c4)c(Oc4ccc5[nH]ccc5c4)c3)CC2)=C(c2ccc(Cl)cc2)C1 [Example 212] : what is it?
stdout: 9.13

###

molecular target: GST-Bcl-2 (Homo sapiens, UniProt P10415); assay: TR-FRET binding assay, GST-Bcl-2 with F-Bak peptide probe; settings: TR-FRET Binding Affinity, GST-Bcl-2, F-Bak peptide probe
pKi: −log10 of the molar value.
Lab note: compare pKi against 10. Equal or greater, write true (1). Smaller, write false (0).

[[record]]
molecule = "CC1(C)CCC(CN2CCN(c3ccc(C(=O)NS(=O)(=O)c4ccc(NCC5CCC(F)(F)CC5)c([N+](=O)[O-])c4)c(Oc4cccc5[nH]ncc45)c3)CC2)=C(c2ccc(Cl)cc2)C1 [Example 412]"
assigned_category = "true (1)"

[[record]]
molecule = "CC1(C)CCC(CN2CCN(c3ccc(C(=O)NS(=O)(=O)c4cnc(OCC5(F)CCOCC5)c(F)c4)c(Oc4cccc5[nH]ncc45)c3)CC2)=C(c2ccc(Cl)cc2)C1 [Example 416]"
assigned_category = "true (1)"

[[record]]
molecule = "CN(C)CCOc1cccc(-c2ccc(Cl)cc2)c1CN1CCN(c2ccc(C(=O)NS(=O)(=O)c3ccc(NCCCN4CCCC4)c([N+](=O)[O-])c3)c(Oc3ccccc3)c2)CC1 [Example 123]"
assigned_category = "true (1)"

[[record]]
molecule = "CC1(C)CCC(CN2CCN(c3ccc(C(=O)NS(=O)(=O)c4ccc(NCC5CCN(C(=O)OCc6ccccc6)CC5)c([N+](=O)[O-])c4)c(Oc4ccc5[nH]ccc5c4)c3)CC2)=C(c2ccc(Cl)cc2)C1 [Example 356]"
assigned_category = "false (0)"

[[record]]
molecule = "CCN(CC)C1CCC(Nc2ccc(S(=O)(=O)NC(=O)c3ccc(N4CCN(CC5=C(c6ccc(Cl)cc6)CC(C)(C)CC5)CC4)cc3Oc3cccc4[nH]ccc34)cc2[N+](=O)[O-])CC1 (stereo not shown) [Example 203]"
assigned_category = "true (1)"


Note: attention shifts to another entry.
stdin: Hello, I need to know if CC1(C)CCC(CN2CCN(c3ccc(C(=O)NS(=O)(=O)c4ccc(NCC5CCS(=O)(=O)CC5)c([N+](=O)[O-])c4)c(Oc4cccc5[nH]ccc45)c3)CC2)=C(c2ccc(Cl)cc2)C1 [Example 301] has measured pKi not below 10. Thanks!
stdout: false (0)

###

Biological target: GST-Bcl-2 (Homo sapiens)
Experiment: TR-FRET binding assay, GST-Bcl-2 with F-Bak peptide probe
Conditions: TR-FRET; Bcl-XL Ki divided by Bcl-2 Ki
Protocol: Tb-anti-GST antibody was purchased from Invitrogen (Catalog No. PV4216). […] The samples were then mixed on a shaker for 1 minute and incubated for an additional 3 hours at room temperature. […] Fluorescence was measured on the ENVISION plate reader (Perkin Elmer) using a 340/35 nm excitation filter and 520/525 (F-Bak peptide) and 495/510 nm (Tb-labeled […] antibody) emission filters. […]
Could you please report measured Binding selectivity ratio (Bcl-XL Ki/Bcl-2 Ki) for the items listed next?
One number for each entry.

[[record]]
compound = "CC(=O)N1CCOC(CNc2ccc(S(=O)(=O)NC(=O)c3ccc(N4CCN(CC5=C(c6ccc(Cl)cc6)CC(C)(C)CC5)CC4)cc3Oc3cccc4[nH]cnc34)cc2[N+](=O)[O-])C1 (centres unmarked)"
quantitative_result = 7413.6

[[record]]
compound = "Cn1cncc1COc1ncc(S(=O)(=O)NC(=O)c2ccc(N3CCN(CC4=C(c5ccc(Cl)cc5)CC(C)(C)CC4)CC3)cc2Oc2cccc3[nH]ncc23)cc1Cl"
quantitative_result = 77.6

[[record]]
compound = "CC1(C)CCC(CN2CCN(c3ccc(C(=O)NS(=O)(=O)c4ccc(OCC5COCCO5)c(Cl)c4)c(Oc4cccc5[nH]ncc45)c3)CC2)=C(c2ccc(Cl)cc2)C1 (centres unmarked)"
quantitative_result = 5754.1

[[record]]
compound = "CC1(C)CCC(CN2CCN(c3ccc(C(=O)NS(=O)(=O)c4ccc(NC5CCN(C6CC6)CC5)c([N+](=O)[O-])c4)c(Oc4cccc5[nH]cnc45)c3)CC2)=C(c2ccc(Cl)cc2)C1"
quantitative_result = 359.9


# map each compound to its Binding selectivity ratio (Bcl-XL Ki/Bcl-2 Ki)
1. CC1(C)CCC(CN2CCN(c3cc(Oc4cccc5[nH]ncc45)c(C(=O)NS(=O)(=O)c4cnc(OCC5(F)CCOCC5)c(Cl)c4)cc3Cl)CC2)=C(c2ccc(Cl)cc2)C1
2. CC1(C)CCC(CN2CCN(c3ccc(C(=O)NS(=O)(=O)c4ccc(OCC5(F)CCOCC5)c(Cl)c4)c(Oc4cccc5[nH]ncc45)c3)CC2)=C(c2ccc(Cl)cc2)C1
3. CC1(C)CCC(CN2CCN(c3ccc(C(=O)NS(=O)(=O)c4cnc(OCCn5ccnc5)c(Cl)c4)c(Oc4cccc5[nH]ncc45)c3)CC2)=C(c2ccc(Cl)cc2)C1
4. CC1(C)CCC(CN2CCN(c3ccc(C(=O)NS(=O)(=O)c4ccc(NCC5CN(S(C)(=O)=O)CCO5)c([N+](=O)[O-])c4)c(Oc4cccc5[nH]cnc45)c3)CC2)=C(c2ccc(Cl)cc2)C1 (centres unmarked)
5. CO[C@H]1CC[C@H](CNc2ccc(S(=O)(=O)NC(=O)c3ccc(N4CCN(CC5=C(c6ccc(Cl)cc6)CC(C)(C)CC5)CC4)cc3Oc3cccc4[nH]ncc34)cc2[N+](=O)[O-])CC1

stdout:
257.8
6431.8
324.0
237.2
508.4

stdin: Reported Binding selectivity ratio (Bcl-XL Ki/Bcl-2 Ki) for `CC1(C)CCC(CN2CCN(c3ccc(C(=O)NS(=O)(=O)c4ccc(OCC5(F)CCOCC5)c(C(F)(F)F)c4)c(Oc4cccc5[nH]ncc45)c3)CC2)=C(c2ccc(Cl)cc2)C1` : what is it?
stdout: 1517.4
